Origin of measurements: the supplement of paper PMC10646978

Tested on: RAW-Dual (murine macrophage reporter line)
Assay: NF-kB reporter (SEAP) activity fold change vs agonist alone; higher = enhanced NF-kB activity
Settings: modulator concentration 10 µM; agonist: CpG ODN 1826 0.5 ug/mL
Measured Attribute: NF-kB reporter
Numbers only.

O=C(C1COCC(=O)N1Cc1ccccc1)N1CCN(c2cccc(Cl)c2)CC1 (stereo unspecified) ... 1.01
CCN(CC)c1ccc(C=NNC(=O)c2ccccc2I)c(O)c1 ... 1.35
COc1ccc(OC)c2sc(NC(=O)C(C)C)nc12 ... 0.97
CS(=O)(=O)N(CC(=O)NCCSCc1cccc(Cl)c1)c1ccc(Cl)cc1 ... 0.893
COC(=O)c1cccc(Nc2nc(C=Cc3ccccc3)nc3ccccc23)c1 ... 1.3
CCN1C(=O)CC(NCCc2ccc(S(N)(=O)=O)cc2)C1=O (stereo unspecified) ... 0.979
COc1ccc(C(=O)CSc2nnc(NC(=O)C3CC(=O)N(c4cccc(OC)c4)C3)s2)cc1 (stereo unspecified) ... 1.15
NCCCCC(=O)O.O=C1c2ccccc2C(=O)C1[N+](=O)[O-] ... 0.788
COC(C)(CNC(=O)c1cc2ccccc2[nH]1)c1ccccc1F (stereo unspecified) ... 0.825
Nc1nc(=O)n([C@@H]2CS[C@H](CO)O2)cc1F ... 1.59

Kindly give each listed record's NF-kB reporter.
1. CC(=O)OC(OC(C)=O)c1ccc([N+](=O)[O-])cc1
2. CC1c2cccc(O)c2C(=O)C2=C(O)C3(O)C(=O)C(C(N)=O)=C(O)C(N(C)C)C3C(O)C21.Cl (stereo unspecified)
3. CCc1cc(=O)oc2c(C)c(OCC(=O)c3ccc(OC)cc3)ccc12
4. N#CC(=Cc1c(F)cccc1Cl)C(=O)Nc1ccc(Cl)cc1

a:
1: 1.16; 2: 1.34; 3: 0.804; 4: 1.08

Kindly give each listed record's NF-kB reporter.
1. CC(=O)CCc1oc2ccc([N+](=O)[O-])cc2c1-c1ccc(C)o1
2. O=C(c1ccc2ccccc2n1)N1CCc2ncncc2C1

a:
1: 1.04; 2: 1.08
